organism: Homo sapiens; experiment: To identify inhibition of the IFN signalling (Jak-Stat) pathway via expression of an eGFP reporter gene under the control of an IFN-stimulated response element (ISRE) containing MxA promoter.; format: functional; parameters: scale not given: direction of the effect not stated beside the values; conditions: 30 µM
Percent Effect below 10% gives criterion not met; Percent Effect at or above it gives criterion met.

Past entries and their recorded results:
{"molecule": "OC(COCc1ccccc1Cl)CN1CC(n2cccn2)C1 (stereo not given)", "label_class": "criterion not met"}
{"molecule": "N#Cc1ccc(CN2CCN(C(=O)c3cc(C4CC4)[nH]n3)CC2)cc1", "label_class": "criterion met"}
{"molecule": "COc1ccc(OC)c(CN2CCCCCC2c2cccs2)c1 (stereo not given)", "label_class": "criterion not met"}
{"molecule": "Cc1nc(C)n(CC2CCCN(Cc3nc(C4CC4)no3)C2)n1 (stereo not given)", "label_class": "criterion not met"}
{"molecule": "Cc1ccc(-c2cc(CNC(=O)N3CCOC(C)C3)on2)cc1 (stereo not given)", "label_class": "criterion met"}
{"molecule": "CN(CC1COc2ccccc2O1)C(=O)NCCCn1ccnc1 (stereo not given)", "label_class": "criterion met"}
{"molecule": "CC(O)CN1CCN(C(=O)c2cc3ccccc3c(=O)[nH]2)CC1 (stereo not given)", "label_class": "criterion not met"}
{"molecule": "CN(C)c1cc(CNC(=O)c2ccc(=O)[nH]n2)ccn1", "label_class": "criterion not met"}

Input: Kindly determine if Percent Effect recorded for CCCSCC(=O)Nc1ncn(CC(=O)NCc2ccccc2)n1 is above or exactly 10%.
Output: criterion not met

Input: Kindly determine if Percent Effect recorded for COc1cccc(CN(C)S(=O)(=O)N2CCOCC2)c1 is above or exactly 10%.
Output: criterion met

Input: Kindly determine if Percent Effect recorded for COc1ncccc1NC(=O)N1CCC(CN2CCOCC2)CC1 is above or exactly 10%.
Output: criterion not met

Input: Kindly determine if Percent Effect recorded for Cc1ccc(-c2nc(CN3CCOC(c4ccccc4)C3)cs2)o1 (stereo not given) is above or exactly 10%.
Output: criterion not met

Input: Kindly determine if Percent Effect recorded for CCN1CCN(C(=O)c2cnn(-c3ccccc3Cl)c2)CC1 is above or exactly 10%.
Output: criterion met

Input: Kindly determine if Percent Effect recorded for CC(C)c1nccn1CCCNC(=O)c1ccc(N(C)C)nc1 is above or exactly 10%.
Output: criterion met

Input: Kindly determine if Percent Effect recorded for CC(=O)N1CCN([C@@H]2CC[C@@H](NC(=O)c3cncc(C)c3)[C@H]2O)CC1 is above or exactly 10%.
Output: criterion met

* * *

system: Trypanosoma cruzi; test: Trypanosoma cruzi phosphomannomutase and mannose-1-phosphate guanylyltransferase assay; type: functional; parameters: scale not given: direction of the effect not stated beside the values; details: 10 µM
reported_endpoint: Percent Effect (%)
Numeric only. Scale: %

{"compound": "CCn1ccnc1CN1CCN(CC(=O)NC(=O)NC2CC2)CC1", "Percent Effect (%)": 3.95}

Input: Fill blank: measured Percent Effect of the compound COCc1ccccc1C(=O)NCCCN1CCCC1C(=O)N(C)C (configuration not stated) is ____.
Output: 2.94

Input: Fill blank: measured Percent Effect of the compound CCc1cc(NCCNc2cccnc2)n2nccc2n1 is ____.
Output: -3.09

Input: Fill blank: measured Percent Effect of the compound O=C1CC(c2ccccc2F)c2c(n3ccsc3nc2=O)N1 (configuration not stated) is ____.
Output: 2.95

Input: Fill blank: measured Percent Effect of the compound Cc1nn(CC(C)C)c(N(C)C)c1CNCc1cccc2c1OCO2 is ____.
Output: -8.02

Input: Fill blank: measured Percent Effect of the compound Cc1nccc(C(=O)N2CCCN(Cc3cnn(C(C)C)c3)CC2)n1 is ____.
Output: -2.93

Input: Fill blank: measured Percent Effect of the compound Cc1nc(C)n(CC2CN(c3ccc(C#N)cn3)CCO2)n1 (configuration not stated) is ____.
Output: 5.88

Input: Fill blank: measured Percent Effect of the compound O=C(NCCNc1ncccn1)N1CCSCC1 is ____.
Output: 3.87

Input: Fill blank: measured Percent Effect of the compound CC(=O)N1CCCN(C(=O)NCCc2cc(Cl)cc(Cl)c2)CC1 is ____.
Output: -2.77

Input: Fill blank: measured Percent Effect of the compound O=C(c1ccccn1)N1CCc2c(nc(N3CCCC3)[nH]c2=O)C1 is ____.
Output: 0.198

Input: Fill blank: measured Percent Effect of the compound Cc1nc(CN(C)C2CCN(Cc3ccc4c(c3)OCCO4)C2)no1 (configuration not stated) is ____.
Output: 5.39

Input: Fill blank: measured Percent Effect of the compound COc1ccc(CN2CCC(O)CC2)c(OC)c1 is ____.
Output: 1.93

Input: Fill blank: measured Percent Effect of the compound CC(C)NS(=O)(=O)c1cc(C(=O)O)cc(-c2ccccc2CN(C)C)c1 is ____.
Output: -6.16

Input: Fill blank: measured Percent Effect of the compound O=C(c1ccco1)N1CCCC1C1CCN(Cc2ccccc2)CC1 (configuration not stated) is ____.
Output: -2.24

Input: Fill blank: measured Percent Effect of the compound Cc1cccc(NC(=O)N2CCCn3cnc(CN4CCCC4)c3C2)c1 is ____.
Output: 3.91

Input: Fill blank: measured Percent Effect of the compound O=C(c1ccccn1)N1C[C@@H]2CC[C@H](C1)N(C(=O)CCc1ccsc1)C2 is ____.
Output: -4.82

Input: Fill blank: measured Percent Effect of the compound CC(O)CN1CCC(CNCc2cccc(Br)c2)CC1 (configuration not stated) is ____.
Output: -4.25

Input: Fill blank: measured Percent Effect of the compound O=C(NCCOc1ccc(F)c(F)c1)NCc1cccc(CO)c1 is ____.
Output: 1.16

Input: Fill blank: measured Percent Effect of the compound O=C1[C@@H]2CCN(Cc3ccoc3)C[C@@H]2OCCN1Cc1cccnc1 is ____.
Output: -2.76

* * *

Target: Tyrosyl-tRNA synthetase, putative (Trypanosoma cruzi (strain CL Brener))
Sequence (whole entry): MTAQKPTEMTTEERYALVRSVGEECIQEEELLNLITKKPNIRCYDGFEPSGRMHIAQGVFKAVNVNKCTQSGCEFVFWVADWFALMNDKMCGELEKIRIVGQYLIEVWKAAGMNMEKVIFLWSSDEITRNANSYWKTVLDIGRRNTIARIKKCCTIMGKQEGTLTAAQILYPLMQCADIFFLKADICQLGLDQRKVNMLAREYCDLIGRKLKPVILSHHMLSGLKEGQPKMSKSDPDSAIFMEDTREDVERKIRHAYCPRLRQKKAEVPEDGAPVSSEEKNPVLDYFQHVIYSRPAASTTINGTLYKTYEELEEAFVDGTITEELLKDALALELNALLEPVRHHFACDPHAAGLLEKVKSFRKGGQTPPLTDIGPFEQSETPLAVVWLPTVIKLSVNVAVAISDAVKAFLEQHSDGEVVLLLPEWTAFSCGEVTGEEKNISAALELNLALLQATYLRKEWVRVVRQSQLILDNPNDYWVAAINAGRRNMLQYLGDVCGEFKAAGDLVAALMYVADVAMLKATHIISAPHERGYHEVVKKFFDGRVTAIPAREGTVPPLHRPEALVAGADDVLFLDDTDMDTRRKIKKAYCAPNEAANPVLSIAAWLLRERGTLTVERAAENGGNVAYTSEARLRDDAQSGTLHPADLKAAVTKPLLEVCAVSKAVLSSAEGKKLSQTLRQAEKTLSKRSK
Experiment: Trypanosoma cruzi tyrosyl tRNA synthetase (TcYRS) SOP
Format: functional
Set-up: scale not given: direction of the effect not stated beside the values
Details: 30 µM
Percent Effect below 10% gives criterion not met; Percent Effect at or above it gives criterion met.

Past entries and their recorded results:
{"compound": "CCc1nnc2n1CCN(C(=O)Cc1csc(-c3ccco3)n1)C2", "label_class": "criterion met"}
{"compound": "Cc1ccc(C(=O)N2CCC3(CCN(C(=O)c4cccnc4)C3)CC2)o1", "label_class": "criterion not met"}
{"compound": "CCCNCC1(O)CCCN(Cc2cccc(C)c2)C1=O (stereo not drawn)", "label_class": "criterion not met"}
{"compound": "Cc1ccc(O)c(CNC2CCc3nc(C(C)C)nn3C2)n1 (stereo not drawn)", "label_class": "criterion met"}
{"compound": "Cn1c(NCC(O)c2ccc(F)cc2F)c(C#N)c(=O)n(C)c1=O (stereo not drawn)", "label_class": "criterion met"}

Input: Kindly determine if Percent Effect recorded for CNC(=O)c1nc2c(s1)CCN(C(=O)Cc1ccc(OC)cc1)CC2 is above or exactly 10%.
Output: criterion not met

Input: Kindly determine if Percent Effect recorded for FC(F)(F)c1cc(N2CCc3ncnc(NC4CC4)c3CC2)ncn1 is above or exactly 10%.
Output: criterion not met

Input: Kindly determine if Percent Effect recorded for COC[C@]12COC[C@H]1CN(Cc1cc(OC)cc(OC)c1)C2 is above or exactly 10%.
Output: criterion not met

Input: Kindly determine if Percent Effect recorded for CN(Cc1nnc(C2CC2)n1C)C1CCN(Cc2ccccc2F)C1 (stereo not drawn) is above or exactly 10%.
Output: criterion not met
